Values from patent US20240400654A1

# tested.target: HRgpA-6H (Porphyromonas gingivalis) (UniProt P28784)
# method.summary: ELISA on coated HRgpA-6H, OD relative to parental Fab
Catalogue of binders with associated Ratio OD(Variant)/OD(WT)
property.label: Ratio OD(Variant)/OD(WT) (fold)

INSERT INTO assay_data (binder, property_label, recorded_number) VALUES
  ('KB001 mouse Fab variant VL S57M (Fab, V domains shown) VH: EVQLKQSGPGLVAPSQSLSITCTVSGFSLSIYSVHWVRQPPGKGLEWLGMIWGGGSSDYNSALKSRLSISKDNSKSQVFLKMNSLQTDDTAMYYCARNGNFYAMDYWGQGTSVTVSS VL: QIVLTQSPAIMSASLGERVTMTCTASSSVSSSFLHWYQQKPGSSPQLWIYSTSNLAMGVPARFSGSGSGTSYSLTISSMEAEDAATYYCHQYHHSPYIYTFGGGTKLEIK', 'Ratio OD(Variant)/OD(WT)', 0.914),
  ('KB001 mouse Fab variant VL S57I (Fab, V domains shown) VH: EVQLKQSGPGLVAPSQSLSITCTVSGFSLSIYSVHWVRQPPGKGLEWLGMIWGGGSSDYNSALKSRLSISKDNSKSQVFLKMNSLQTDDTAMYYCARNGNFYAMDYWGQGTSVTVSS VL: QIVLTQSPAIMSASLGERVTMTCTASSSVSSSFLHWYQQKPGSSPQLWIYSTSNLAIGVPARFSGSGSGTSYSLTISSMEAEDAATYYCHQYHHSPYIYTFGGGTKLEIK', 'Ratio OD(Variant)/OD(WT)', 0.97),
  ('KB001 mouse Fab variant VL A56P (Fab, V domains shown) VH: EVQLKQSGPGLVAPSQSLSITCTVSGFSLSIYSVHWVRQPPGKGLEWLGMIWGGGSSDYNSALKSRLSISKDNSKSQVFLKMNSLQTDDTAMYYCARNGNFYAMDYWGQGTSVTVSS VL: QIVLTQSPAIMSASLGERVTMTCTASSSVSSSFLHWYQQKPGSSPQLWIYSTSNLPSGVPARFSGSGSGTSYSLTISSMEAEDAATYYCHQYHHSPYIYTFGGGTKLEIK', 'Ratio OD(Variant)/OD(WT)', 0.917),
  ('KB001 mouse Fab variant VL S57Q (Fab, V domains shown) VH: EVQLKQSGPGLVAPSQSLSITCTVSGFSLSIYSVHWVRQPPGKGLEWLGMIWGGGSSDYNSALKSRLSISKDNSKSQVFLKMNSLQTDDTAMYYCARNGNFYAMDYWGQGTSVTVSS VL: QIVLTQSPAIMSASLGERVTMTCTASSSVSSSFLHWYQQKPGSSPQLWIYSTSNLAQGVPARFSGSGSGTSYSLTISSMEAEDAATYYCHQYHHSPYIYTFGGGTKLEIK', 'Ratio OD(Variant)/OD(WT)', 0.807),
  ('KB001 mouse Fab variant VL S57R (Fab, V domains shown) VH: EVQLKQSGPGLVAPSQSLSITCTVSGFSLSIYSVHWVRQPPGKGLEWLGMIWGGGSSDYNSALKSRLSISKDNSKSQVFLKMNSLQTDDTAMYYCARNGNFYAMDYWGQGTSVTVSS VL: QIVLTQSPAIMSASLGERVTMTCTASSSVSSSFLHWYQQKPGSSPQLWIYSTSNLARGVPARFSGSGSGTSYSLTISSMEAEDAATYYCHQYHHSPYIYTFGGGTKLEIK', 'Ratio OD(Variant)/OD(WT)', 0.915);
